- assay_summary: blockers of serum C3 deposition on LPS – biochemical, ELISA, human serum, orthogonally pooled compounds, primary screen (AID 1235);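 also: 0% = serum in Mg-EGTA without compound and 100% = EDTA serum blank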
- condition_parameters: Human serum alternative complement pathway, LPS-coated ELISA, tested in compound mixtures, at 5 µM, active compounds read high
Screen size: about 62,000 compounds; about 50 (0.08%) were called active. What follows is part of a selection rich in actives, with near analogues and random picks from the rest.
reported_metric: inhibition (%)
Numbers only; they are read as %.

Worked cases, answers included:
- molecule: "CCOC(=O)C(CCOc1cccc(CC)c1)C(=O)OCC"
  recorded_number: 9.83
- molecule: "O=C(NCc1ccc2c(c1)OCO2)C1CCCN(S(=O)(=O)c2cccs2)C1 (stereo not drawn)"
  recorded_number: 7.05
- molecule: "CCOc1ccc(CNC(=O)C2CC(=O)N(C3CCCC3)C2)cc1OC (stereo not drawn)"
  recorded_number: 18.4
- molecule: "CS(=O)(=O)N(CC(=O)NCc1ccco1)c1ccc2c(c1)OCO2"
  recorded_number: -0.135
- molecule: "O=C(Cn1nc(C(F)(F)F)c2c1CCC2)NCc1ccc(F)cc1"
  recorded_number: -10.2
- molecule: "O=C(OCc1cc2ccccc2[nH]c1=O)c1cccnc1"
  recorded_number: 1.83

Incoming: Name the recorded inhibition for CCn1ncc(C2=NOC(C(=O)Nc3ccccc3C(=O)OC)C2)c1C (stereo not drawn) .
Outgoing: 12.4

Incoming: // lookup inhibition for S=C1SCN(CCN2CCOCC2)CN1Cc1ccccc1
Outgoing: 16

Incoming: Item CCCCCn1c(SCCC(C)C)nc2c1c(=O)[nH]c(=O)n2C has what recorded inhibition?
Outgoing: 4.81

Incoming: Can you look up the measured inhibition of COc1ccc(-c2[nH]nc3c2C(c2ccncc2)C(C#N)=C(N)O3)cc1 (stereo not drawn) for me?
Outgoing: 0.015

Incoming: Which value of inhibition has been reported for O=c1c2ccccc2nc(CSc2nnnn2-c2ccccc2)n1-c1ccccc1 in the records?
Outgoing: 16.5

Incoming: Can you look up the measured inhibition of Cc1nn(Cc2ccc(Cl)c(Cl)c2)c(C)c1NC(=O)c1cc(C2CC2)on1 for me?
Outgoing: 14.3

Incoming: # input molecule: COc1cccc(NC(=O)c2ccccc2SC)c1 ; wanted: its inhibition
Outgoing: 12.3

###

Reported inhibition by item:
- assay_summary: blockers of serum C3 deposition on LPS – biochemical, ELISA, human serum, orthogonally pooled compounds, primary screen (AID 1235);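 also: 0% = serum in Mg-EGTA without compound and 100% = EDTA serum blank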
- condition_parameters: Human serum alternative complement pathway, LPS-coated ELISA, tested in compound mixtures, at 5 µM, active compounds read high
The whole screen tested about 62,000 compounds, of which about 50 (0.08%) were called active. Many of the other results were omitted from the sample, so actives are more common in it than they were.
The reply should be a number in %, with the unit left off.

Check out these entries, answers already filled in.
- compound: "COCCNC(=O)Cn1cc2c(n1)CCCCC2"
  unit_name: "%"
  recorded_number: 3.37
- compound: "Cc1csc(NC(=O)C2CCCN2C(=O)OCC(C)C)n1 (stereo unspecified)"
  unit_name: "%"
  recorded_number: -7.74
- compound: "COC(=O)c1cc(Cl)c(NC(=O)c2ccco2)cc1OC"
  unit_name: "%"
  recorded_number: 13

Attention now turns to another entry.
Incoming: I am curious: what inhibition value has been reported for COc1ccc(CC(=O)Nc2c3c(nn2-c2cccc(Cl)c2)CS(=O)C3)cc1 (stereo unspecified) ?
Outgoing: 11.2

###

Attribute: inhibition
- assay_summary: blockers of serum C3 deposition on LPS – biochemical, ELISA, human serum, orthogonally pooled compounds, primary screen (AID 1235);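 also: 0% = serum in Mg-EGTA without compound and 100% = EDTA serum blank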
- condition_parameters: Human serum alternative complement pathway, LPS-coated ELISA, tested in compound mixtures, at 5 µM, active compounds read high
Among all 62,000 compounds or so, about 50 (0.08%) were called active. Many of the other results were omitted from the sample, so actives are more common in it than they were.
Numbers only here, please. The scale is %.

- molecule: "CCOC(=O)c1oc2ccccc2c1NC(=O)c1cccs1"
  unit_name: "%"
  inhibition: 0.31
- molecule: "COc1ccccc1N1CCN(c2nc3ccccc3n3nnnc23)CC1"
  unit_name: "%"
  inhibition: -4.06
- molecule: "O=C(CSc1n[nH]c(-c2cccnc2)n1)Nc1ccnc2ccccc12"
  unit_name: "%"
  inhibition: -1.01
- molecule: "CC1(C)C(=O)C2(CCCCC2)C(=O)OC1c1cccs1 (stereo unspecified)"
  unit_name: "%"
  inhibition: 15.8

Incoming: Dear colleague, I am looking for the recorded inhibition of the following molecule: COc1cc(Cl)c(C)cc1NC(=O)CSc1nnc(-c2ccco2)n1CC(C)C
Outgoing: 10.7

Incoming: Can you share its inhibition? I mean this molecule: COc1ccc(C2SCCN2S(=O)(=O)c2ccccc2)cc1OC (stereo unspecified)
Outgoing: 21.6

Incoming: Given the entry O=C(O)C1CC(=O)N(Cc2cccnc2)C1 (stereo unspecified) , report its measured inhibition.
Outgoing: 15.1

Incoming: I'd like to know its inhibition. The molecule in question is CCOC(=O)c1ccc(N2C(=O)CC(N3CCC(C(=O)OCC)CC3)C2=O)cc1 (stereo unspecified)
Outgoing: -0.58

Incoming: Requested field: inhibition. Item: C=CCN1C(=O)C(O)(CC(=O)c2ccc(Cl)cc2)c2ccccc21 (stereo unspecified)
Outgoing: 8.76

Incoming: What inhibition value was documented for this molecule, Cc1cc(=O)n2nc(N3CCCC3C(=O)NCCCN3CC(C)CC(C)C3)sc2n1 (stereo unspecified) ?
Outgoing: 20.4

Incoming: I would be grateful if you could share the reported inhibition for Cc1occc1C(=O)Nc1nnc(C2CCCCC2)s1 .
Outgoing: 9.21

###

- assay_summary: blockers of serum C3 deposition on LPS – biochemical, ELISA, human serum, orthogonally pooled compounds, primary screen (AID 1235);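 also: 0% = serum in Mg-EGTA without compound and 100% = EDTA serum blank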
- condition_parameters: Human serum alternative complement pathway, LPS-coated ELISA, tested in compound mixtures, at 5 µM
The campaign covered roughly 62,000 compounds. About 50 (0.08%) were called active.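 Rule for the calls: active = inhibition above 30% in each of the two pooled mixtures holding the compound, so the lower value exceeds 30%; inactive = the rest.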 The full list was thinned out, with actives kept by preference.
Valid outcomes are listed here; reply with one: t = active, f = inactive

- compound: "CC(=O)C1C(c2cccc(Oc3ccccc3)c2)NC(=O)NC1(O)C(F)(F)F (stereo unspecified)"
  label: "f"
- compound: "Cn1c(SCc2c(F)cccc2Cl)nnc1-c1cnccn1"
  label: "f"
- compound: "O=C(c1ccc(O)cc1)c1ccc(C(=O)O)c(C(=O)O)c1"
  label: "f"
- compound: "Cc1c(C(=O)N2CC(C)OC(C)C2)sc2nc(-c3ccccc3)cn12 (stereo unspecified)"
  label: "f"

Incoming: Returns: the outcome recorded for O=C(CSc1nc2ccccc2[nH]1)c1cccs1 in this assay.
Outgoing: f

Incoming: Each compound tested received a call. Report the one for Cc1nc(Nc2ccc3c(c2)OCCO3)c2nnn(Cc3ccccc3Cl)c2n1 .
Outgoing: f

Incoming: What is the recorded call for this compound in the test? CCOC(=O)C1CCN(C(=O)CSc2cc(=O)n(C)c3ccccc23)CC1
Outgoing: f

Incoming: Identify the outcome logged in this assay for the compound shown: COCCNC(=O)c1snc2ccc(Cl)cc12
Outgoing: f

Incoming: Name the outcome recorded for Fc1ccccc1OCCSc1nc2ccccc2o1 in the assay.
Outgoing: f

###

- assay_summary: blockers of serum C3 deposition on LPS – biochemical, ELISA, human serum, orthogonally pooled compounds, primary screen (AID 1235);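 also: 0% = serum in Mg-EGTA without compound and 100% = EDTA serum blank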
- condition_parameters: Human serum alternative complement pathway, LPS-coated ELISA, tested in compound mixtures, at 5 µM, active compounds read high
Out of some 62,000 compounds screened, about 50 (0.08%) were called active. Shown is part of a subset that was picked to be rich in actives.
reported_metric: inhibition (%)
State just the number; it will be interpreted in %.

Illustrative cases are given below, each with its answer.
- compound: "O=C(Cn1cnc2c(nnn2-c2ccccc2)c1=O)N1CCC(Cc2ccccc2)CC1"
  reported_metric: "inhibition"
  recorded_number: 12.9
- compound: "CNC(=O)C1CC(=O)N(Cc2ccc3c(c2)OCO3)C(=Nc2ccc(F)cc2)S1 (stereo not given)"
  reported_metric: "inhibition"
  recorded_number: 13
- compound: "O=C(C(Cc1ccccc1)n1cccc1)N1CCN(C2CCCCC2)CC1 (stereo not given)"
  reported_metric: "inhibition"
  recorded_number: 14.7
- compound: "CCS(=O)(=O)N1CCCC(C(=O)NCc2ccc(C)cc2)C1 (stereo not given)"
  reported_metric: "inhibition"
  recorded_number: 13.3

Please find the next compound below.
Incoming: Request the reported inhibition associated with c1ccc(-c2cc(-c3nnc4sc(-c5ccccn5)nn34)[nH]n2)cc1
Outgoing: 8.74

###

- assay_summary: blockers of serum C3 deposition on LPS – biochemical, ELISA, human serum, orthogonally pooled compounds, primary screen (AID 1235);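 also: 0% = serum in Mg-EGTA without compound and 100% = EDTA serum blank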
- condition_parameters: Human serum alternative complement pathway, LPS-coated ELISA, tested in compound mixtures, at 5 µM
Hit rate of the full screen: of about 62,000 compounds, about 50 (0.08%) were called active.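 The calls were made as follows: active = inhibition above 30% in each of the two pooled mixtures holding the compound, so the lower value exceeds 30%; inactive = the rest.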 The entries come from a sample that favours actives as a whole.
Reply using exactly one outcome from active, inactive

Incoming: What classification did COc1ccc2c(Cl)c(-c3nnco3)sc2c1 end up with in this test?
Outgoing: inactive

Incoming: Please let me know the test result on file for CCOC(=O)Cn1c(=O)oc2cc(S(=O)(=O)NCC3CCCO3)ccc21 (stereo not drawn) .
Outgoing: inactive

Incoming: Please let me know the test result on file for COC(=O)c1ccccc1NC(=O)CSc1ccccn1 .
Outgoing: inactive

Incoming: # outcome recorded in this test, key = COc1ccc(C2C(C(=O)N3CCN(c4ccc(OC)cc4)CC3)c3ccccc3C(=O)N2C)cc1 (stereo not drawn)
Outgoing: inactive

Incoming: # fetch the recorded call for Cc1ccc(C)c(N2CCN(S(=O)(=O)c3ccc4c(c3)oc(=O)n4C)CC2)c1 here
Outgoing: inactive

Incoming: Dear all, I need the recorded test outcome for Cc1ccc(C)c(N2CCN(C(=O)CCc3nc4ccccc4[nH]3)CC2)c1 , thank you.
Outgoing: inactive

Incoming: Could you kindly confirm the outcome this assay logged for O=C(CC1NCCNC1=O)Nc1ccc(Oc2ccccc2)cc1 (stereo not drawn) ?
Outgoing: active
